Where do the numbers come from? From patent US20110118447A1.

molecular target: binding partner of C5A (XPA23); assay: Biacore
This section presents binders with their documented fold affinity vs original values.
State just the number; it will be interpreted in fold.

C5A (XPA23) VH N104Q (antibody, V domains shown) VH: EVQLLESGGGLVQPGGSLRLSCAASGFTFSKYFMFWVRQAPGKGLEWVSVISPSGGMTRYADSVKGRFTISRDNSKNTLYLQMNSLRAEDTAVYYCARVGYGGQSDYWGQGTLVTVSS VL: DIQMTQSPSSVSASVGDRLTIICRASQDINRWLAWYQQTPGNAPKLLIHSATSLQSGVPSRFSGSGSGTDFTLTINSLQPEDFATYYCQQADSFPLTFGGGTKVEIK: 0.03
C5A (XPA23) VH M57H (antibody, V domains shown) VH: EVQLLESGGGLVQPGGSLRLSCAASGFTFSKYFMFWVRQAPGKGLEWVSVISPSGGHTRYADSVKGRFTISRDNSKNTLYLQMNSLRAEDTAVYYCARVGYGGNSDYWGQGTLVTVSS VL: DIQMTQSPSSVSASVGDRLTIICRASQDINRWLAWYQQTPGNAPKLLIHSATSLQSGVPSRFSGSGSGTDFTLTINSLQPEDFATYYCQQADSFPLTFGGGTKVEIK: 0.08
C5A (XPA23) VH P53K (antibody, V domains shown) VH: EVQLLESGGGLVQPGGSLRLSCAASGFTFSKYFMFWVRQAPGKGLEWVSVISKSGGMTRYADSVKGRFTISRDNSKNTLYLQMNSLRAEDTAVYYCARVGYGGNSDYWGQGTLVTVSS VL: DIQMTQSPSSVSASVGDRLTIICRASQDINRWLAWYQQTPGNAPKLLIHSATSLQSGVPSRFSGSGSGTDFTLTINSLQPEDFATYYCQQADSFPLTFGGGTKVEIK: 0.04
C5A (XPA23) VH Y101Q (antibody, V domains shown) VH: EVQLLESGGGLVQPGGSLRLSCAASGFTFSKYFMFWVRQAPGKGLEWVSVISPSGGMTRYADSVKGRFTISRDNSKNTLYLQMNSLRAEDTAVYYCARVGQGGNSDYWGQGTLVTVSS VL: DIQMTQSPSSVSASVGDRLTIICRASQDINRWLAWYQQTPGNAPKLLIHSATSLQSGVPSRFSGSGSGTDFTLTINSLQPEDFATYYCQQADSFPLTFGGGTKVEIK: 0.06

Attention now shifts to the item below.
Challenge: In one line, give reported fold affinity vs original of the entry C5A (XPA23) VH Y107D (antibody, V domains shown) VH: EVQLLESGGGLVQPGGSLRLSCAASGFTFSKYFMFWVRQAPGKGLEWVSVISPSGGMTRYADSVKGRFTISRDNSKNTLYLQMNSLRAEDTAVYYCARVGYGGNSDDWGQGTLVTVSS VL: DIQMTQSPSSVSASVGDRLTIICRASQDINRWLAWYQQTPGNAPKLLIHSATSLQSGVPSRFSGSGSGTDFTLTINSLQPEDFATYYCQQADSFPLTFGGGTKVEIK .
Response given: 0.85
